settings: 1 μM, 30 minutes, 37° C., NADPH
endpoint: MS(Microsomal Stability) (%) dog

* OCCC/C(=C(\c1ccc(O)cc1)c1ccc(C2CCN(C3CC3)CC2)cc1)c1ccccc1 [Compound 22i] | 91.5
* CCN1CCN(c2ccc(/C(=C(/CCCO)c3ccccc3)c3ccc(C)cc3)cc2)CC1 [Compound 18j] | 58.0
* CC(C)N1CCC(c2ccc(/C(=C(/CCCO)c3ccccc3)c3ccc(O)cc3)cc2)CC1 [Compound 22k] | 59.6
* CC(C)N1CCN(c2ccc(/C(=C(/CCCO)c3ccccc3)c3ccc(NS(C)(=O)=O)cc3)cc2)CC1 [Compound 27a] | 50.3
